target: human D2 receptor (Homo sapiens (Human), UniProt P14416); test: Test 1: binding activity for human D2 receptor ([3H]Spiperone, CHO cell membrane fraction); conditions: [3H]Spiperone, room temperature 60 minutes
Sequence (P14416 whole entry): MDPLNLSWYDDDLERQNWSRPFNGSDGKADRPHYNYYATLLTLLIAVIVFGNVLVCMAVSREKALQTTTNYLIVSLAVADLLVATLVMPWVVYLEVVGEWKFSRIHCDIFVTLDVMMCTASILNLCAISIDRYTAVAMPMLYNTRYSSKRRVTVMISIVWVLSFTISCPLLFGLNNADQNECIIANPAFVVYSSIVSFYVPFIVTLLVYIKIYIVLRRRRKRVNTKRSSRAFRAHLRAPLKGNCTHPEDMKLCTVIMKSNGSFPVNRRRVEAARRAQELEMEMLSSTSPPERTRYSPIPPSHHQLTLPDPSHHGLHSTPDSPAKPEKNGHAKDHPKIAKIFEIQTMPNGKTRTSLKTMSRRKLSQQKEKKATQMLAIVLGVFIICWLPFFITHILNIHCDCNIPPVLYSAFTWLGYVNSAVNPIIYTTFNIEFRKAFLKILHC
observed property: Ki

# compound, system, data value
records = [
    ("CCN(CCN1CCC(n2ncc3cc(F)ccc32)CC1)C(=O)[C@H](C)O [Example 21]", "human D2 receptor (Homo sapiens (Human), UniProt P14416)", "> 1000 nM"),
    ("CCN(CCN1CCC(c2noc3cc(F)ccc23)CC1)C(=O)C1CN(C(C)=O)CCC1O (stereo not drawn) [Example 74]", "human D2 receptor (Homo sapiens (Human), UniProt P14416)", "138 nM"),
    ("CCN(CCCN1CCC(c2noc3cc(F)ccc23)CC1)C(=O)[C@H](C)O [Example 38]", "human D2 receptor (Homo sapiens (Human), UniProt P14416)", "352 nM"),
    ("CC(C)N(CCN1CCC(c2noc3cc(F)ccc23)CC1)C(=O)[C@@H](C)O [Example 42]", "human D2 receptor (Homo sapiens (Human), UniProt P14416)", "74 nM"),
    ("C#CC(O)C(=O)N(CC)CCN1CCC(c2noc3cc(F)ccc23)CC1 (stereo not drawn) [Example 28]", "human D2 receptor (Homo sapiens (Human), UniProt P14416)", "< 100 nM"),
    ("CCN(CCN1CCC(c2c[nH]c3ccccc23)CC1)C(=O)[C@H](C)O [Example 23]", "human D2 receptor (Homo sapiens (Human), UniProt P14416)", "> 1000 nM"),
    ("CCN(CCN1CCC(c2noc3cc(F)ccc23)CC1)C(=O)C(F)(F)CO [Example 36]", "human D2 receptor (Homo sapiens (Human), UniProt P14416)", "80 nM"),
    ("CCN(CCN1CCC(c2noc3cc(F)ccc23)CC1)C(=O)C1CNCCC1O (stereo not drawn) [Example 67]", "human D2 receptor (Homo sapiens (Human), UniProt P14416)", "< 100 nM"),
    ("CCN(CCN1CCC(n2ncc3cc(F)ccc32)CC1)C(=O)CCO [Example 2]", "human D2 receptor (Homo sapiens (Human), UniProt P14416)", "> 1000 nM"),
]

====

target: human D2 receptor (Homo sapiens (Human), UniProt P14416); test: Test 1: binding activity for human D2 receptor ([3H]Spiperone, CHO cell membrane fraction); details: [3H]Spiperone, room temperature 60 minutes
pKi: −log10 of the molar value.

# molecule, result qualifier, pKi
records = [
    ("CCN(CCN1CCC(c2noc3cc(F)ccc23)CC1)C(=O)C1CN(C)CC1O (stereo not drawn) [Example 75]", "=", 6.91),
    ("CCN(CCN1CCC(c2noc3cc(F)ccc23)CC1)S(=O)(=O)C(C)CO (stereo not drawn) [Example 52]", "<", 5.00),
    ("CCN(CCN1CCC(c2c[nH]c3cc(F)ccc23)CC1)S(=O)(=O)CCO [Example 62]", "=", 6.98),
    ("CCN(CCN1CCC(c2c[nH]c3ccccc23)CC1)C(=O)C(C)O (stereo not drawn) [Example 22]", "=", 6.28),
    ("CCN(CCCN1CCC(c2noc3ccccc23)CC1)S(=O)(=O)C(C)CO (stereo not drawn) [Example 54]", "=", 6.94),
    ("CCN(CCN1CCC(c2noc3cc(F)ccc23)CC1)C(=O)C1CCC(O)CC1 (stereo not drawn) [Example 9]", ">", 7.00),
    ("CCN(CCN1CCC(c2noc3cc(F)ccc23)CC1)C(=O)C(O)CCC(=O)OC (stereo not drawn) [Example 5]", "=", 6.94),
    ("CC(O)C(=O)N(CCN1CCC(c2noc3cc(F)ccc23)CC1)CC1CC1 (stereo not drawn) [Example 30]", "=", 6.82),
    ("CCN(CCN1CCC(c2noc3cc(F)ccc23)CC1)C(=O)C1CNCC1O (stereo not drawn) [Example 66]", "=", 6.67),
    ("CCN(CCN1CCC(c2noc3cc(F)ccc23)CC1)C(=O)C1CCCCC1O (stereo not drawn) [Example 33]", "=", 7.26),
    ("CCN(CCN1CCC(c2noc3cc(F)ccc23)CC1)C(=O)C1CN(C)CCC1O (stereo not drawn) [Example 76]", "=", 6.71),
    ("CCN(CCN1CCC(c2noc3cc(F)ccc23)CC1)C(=O)C1(O)CCOCC1 [Example 11]", ">", 7.00),
    ("CCN(CCN1CCC(c2noc3cc(Cl)ccc23)CC1)C(=O)[C@H](C)O [Example 15]", "<", 6.00),
    ("CCN(CCN1CCC(c2noc3cc(F)ccc23)CC1)C(=O)[C@H]1NCC[C@H]1O [Example 68]", "=", 6.04),
    ("CCN(CCCN1CCN(c2noc3cc(F)ccc23)CC1)S(=O)(=O)C(C)CO (stereo not drawn) [Example 55]", "=", 7.11),
    ("CCN(CCN1CCC(c2c[nH]c3ccccc23)CC1)C(=O)CCO [Example 47]", "=", 6.34),
    ("CC(O)C(=O)N(CCN1CCC(c2noc3cc(F)ccc23)CC1)C(C)C (stereo not drawn) [Example 31]", "=", 7.05),
    ("CCN(CCN1CCC(n2ncc3cc(F)ccc32)CC1)S(=O)(=O)C(C)CO (stereo not drawn) [Example 64]", "=", 6.46),
]

Value source: patent US11339151B2
